Assay: qHTS assay to identify small molecule antagonists of the estrogen related receptor (ERR) signaling pathway from Tox21 library (AID 1224848); note: nearly all actives have a fitted effect of over 50% in size
Settings: ERR reporter cell line, luciferase antagonist mode, 18 h; series mostly up to 92.4 µM
Records with an inconclusive call do not appear. Active and inactive are the calls of the source. Calls come from the whole dose curve; as a rule, active = well fitted inhibition curve with a large enough effect in the repeat runs; inconclusive = weak or mixed curves; inactive = no such curve, though single readings can be large or run the other way.
readout label: outcome

* Cc1cccc2ccccc12 | inactive
* C=C(C)C(N)=O | inactive
* CN(C)C=O | inactive
* CCCCCCCCOc1ccc(C(=O)c2ccccc2)c(O)c1 | inactive

# lookup: outcome of CC(C)CC(C)CC(O)CC(C)C (stereo not given)
inactive

Now this one: CCOC(=O)C(C)(C)Oc1ccc(Cl)cc1
inactive

Now this one: OC[C@@H](O)[C@@H](O)[C@H](O)[C@H](O)CO
inactive
